# test-target: Cytochrome P450 2C9 (Homo sapiens)
# assay: Cytochrome P450 family 2 subfamily C member 9 (CYP2C9) small molecule antagonists: luciferase biochemical (cell-free) qHTS assay (AID 1645842); note: nearly all actives have a fitted effect of over 55% in size
# settings: P450-Glo CYP2C9 enzyme assay, luciferin luminescence; series mostly up to 57.4 µM
Inconclusive results are not listed. Calls of active or inactive are those of the source. Calls come from the whole dose curve; as a rule, active = well fitted inhibition curve with a large enough effect in the repeat runs; inconclusive = weak or mixed curves; inactive = no such curve, though single readings can be large or run the other way.
I would appreciate it if you answered using one of these outcomes: active, inactive

Illustrative cases are given below, each with its answer.
compound	test-target	discrete-label
CCCCCCCCCC(=O)O	Cytochrome P450 2C9 (Homo sapiens)	inactive
CCc1cc2c(cc1CC)CC(NCC(O)c1ccc(O)c3[nH]c(=O)ccc13)C2 (centres undefined)	Cytochrome P450 2C9 (Homo sapiens)	inactive

Ask: Dear colleague, could you share the recorded outcome for "Cc1cc(C(=O)Nc2cc(Nc3ccc4c(/C=C/c5ccccn5)n[nH]c4c3)ccc2F)n(C)n1" when you have a moment?
Result: active

Ask: Status in this test for "Cn1cc(-c2ccc(S(=O)(=O)n3ccc(/C=C/C(=O)Nc4ccccc4N)c3)cc2)cn1" ?
Result: active

Ask: Answer briefly: the call reported for "CCOC(=O)c1cnc2ccc(-c3cncc(NS(=O)(=O)c4ccccc4)c3)cn12" in this assay.
Result: active

###

# Test system: CAOV3
# assay: Primary qHTS to identify gynecologic anti-cancer compounds using libraries of approved drugs and bioactive compounds (AID 1345084); note: nearly all actives have a fitted effect of over 55% in size
# settings: Gynecologic cancer cell panel viability, ATPlite luminescence, 48 h; series mostly up to 57.5 µM
Records with an inconclusive call do not appear. Activity calls are given as the source filed them. Calls follow the shape of the dose curve; as a rule, active = well fitted cell-killing curve with a large enough effect; inconclusive = small, poorly fitted or top-dose-only effect, or effect the other way; inactive = flat fitted curve, though single readings scatter.
Write down the outcome that applies. Available outcomes: true (active), false (inactive)

molecule	test-target	discrete-label
C[C@@H]1O[C@@H](O[C@H]2[C@@H]3C=CO[C@@H](O[C@@H]4O[C@H](CO)[C@@H](O)[C@H](O)[C@H]4O)[C@@H]3[C@@]3(CO)O[C@@H]23)[C@H](O)[C@H](OC(=O)/C=C/c2ccccc2)[C@H]1O	CAOV3	false
O=C(Nc1nc2ccc([N+](=O)[O-])cc2s1)C1CCCCC1	CAOV3	false
CCOC(=O)N1c2ccc(C(F)(F)F)cc2C(N(Cc2cc(C(F)(F)F)cc(C(F)(F)F)c2)C(=O)OC)CC1CC (stereo not drawn)	CAOV3	false
Fc1ccc(-c2cncc(CN3CCN(c4cccc5c4OCCO5)CC3)c2)cc1	CAOV3	false
Cc1cccc(C#Cc2cc(F)cc(C#N)c2)n1	CAOV3	false
CC1(NC(=O)c2ccc(C#Cc3cccc(F)c3)cn2)COC1	CAOV3	false

Ask: Which outcome was assigned to COc1ccc(NC(=O)C2C[C@H](C)CC[C@H]2C(C)C)cc1 (stereo partly drawn) in this test?
Result: false

Ask: Query: recorded result category for "CN1CCC(c2cn(C)c3ccc(OS(=O)(=O)c4c(F)cccc4F)cc23)CC1" in this test
Result: false

Ask: Hello, I am checking results. What call was entered for Cc1cc(C)c2c(c1)C(N(Cc1cc(C(F)(F)F)cc(C(F)(F)F)c1)c1nnn(C)n1)CCCN2CC1CCC(C(=O)O)CC1 (stereo not drawn) ?
Result: false

Ask: How did this test come out for "C[C@@H](NC(=O)C(=O)c1c[nH]c2ccc([N+](=O)[O-])cc12)c1ccccc1" ?
Result: false

Ask: Check the results log: what was the call for CCC(C)C1NC(=O)C(Cc2ccccc2)NC(=O)C(CCCCCC(=O)C(O)CO)NC(=O)C2CCCCN2C1=O (stereo not drawn) ?
Result: false

Ask: # outcome recorded in this test, key = "CNC(=O)[C@@H](c1ccccc1)N1CCc2cc(OC)c(OC)cc2[C@@H]1CCc1ccc(C(F)(F)F)cc1"
Result: false
